assay: basal HepG2 mitochondrial membrane potential changes, profiling panel, cell-based, JC-1 fluorescence, 24 h, 100 nL compound (AID 1167); settings: higher = more signal; note: test concentration not given here
So basically: z-score at -0.3 or higher? That is satisfied. Lower than -0.3? That is not satisfied.

{"compound": "CCOC(=O)[C@H](Cc1ccccc1)NC(=O)CCC1CC(OC(=O)NCc2cccc3ccccc23)CC2(CCCC(COC(=O)NCCC(C)C)O2)O1 (stereo not given in full)", "assigned_class": "not satisfied"}
{"compound": "CCOC(=O)[C@H](CC(C)C)NC(=O)CCC1CC(OC(=O)NCc2cccc3ccccc23)CC2(CCCC(COC(=O)NCCC(C)C)O2)O1 (stereo not given in full)", "assigned_class": "satisfied"}
{"compound": "CC(CCN1CCCCc2nc(C)c(C)cc21)=NO[C@@H](C)c1cn([C@H](CO)Cc2ccccc2)nn1", "assigned_class": "not satisfied"}
{"compound": "CO[C@@H]1COC(=O)[C@H](CCSC)NC(=O)CC=C[C@@H](C)COC(=O)[C@H](C)NC(=O)CC=C[C@H]1C", "assigned_class": "satisfied"}
{"compound": "CC(C)=CCCC(C)=CCON=C1C[C@@H](O)[C@@H](O)[C@@H]2[C@@H]3C(=O)N(c4cccc(Oc5ccccc5)c4)C(=O)[C@@H]3CC[C@@H]12", "assigned_class": "not satisfied"}
{"compound": "O=C1CCCC=C1C(CCc1ccccc1)OC(=O)c1ccc(Br)cc1 (stereo not given)", "assigned_class": "satisfied"}
{"compound": "CCOC(=O)CCN1C(=O)[C@H]2[C@H]3[C@H](O)[C@H](O)CC(=NOCc4ccccc4)[C@H]3CC[C@H]2C1=O", "assigned_class": "satisfied"}
{"compound": "CCOC(=O)CCN1C(=O)[C@H]2[C@H]3[C@H](O)[C@H](O)CC(=NOCC(C)C)[C@H]3CC[C@H]2C1=O", "assigned_class": "satisfied"}
{"compound": "CCC(=O)[C@@]1(O)C(=O)N2C(=C3C(=O)OCC[C@@H]31)N(Cc1ccccc1)C(C)=C(C(=O)OC)[C@H]2c1ccccc1", "assigned_class": "satisfied"}
{"compound": "C[C@@H](c1ccccc1)N1C(=O)[C@H]2[C@H]3[C@H](O)[C@H](O)CC(=NO[C@@H]4O[C@H](CO)[C@@H](O)[C@H](O)[C@H]4O)[C@@H]3CC[C@H]2C1=O", "assigned_class": "not satisfied"}
{"compound": "C[C@@H](c1ccccc1)N1C(=O)[C@H]2[C@H]3[C@H](O)[C@H](O)CC(=NOCc4ccccc4)[C@H]3CC[C@H]2C1=O", "assigned_class": "satisfied"}
{"compound": "COC(=O)CC=C[C@@H](C)[C@@H](C=NO[C@@H](C)c1cc(-c2c(C)cc(C)cc2C)no1)NS(=O)(=O)c1ccc(C)cc1", "assigned_class": "satisfied"}
{"compound": "CC(C)=CCCC(C)=CCON=C1C[C@@H](O)[C@@H](O)[C@@H]2[C@@H]3C(=O)N(c4ccc(F)cc4F)C(=O)[C@@H]3CC[C@H]12", "assigned_class": "not satisfied"}
{"compound": "O=C1[C@H]2[C@H]3[C@H](O)[C@H](O)CC(=NOCc4ccccc4)[C@H]3CC[C@H]2C(=O)N1Cc1ccc2c(c1)OCO2", "assigned_class": "satisfied"}
{"compound": "Cc1ccc(S(=O)(=O)n2c3ccccc3c3nnc(C(=O)c4ccccc4)nc32)cc1", "assigned_class": "not satisfied"}
{"compound": "COC(=O)[C@H]1[C@@H](O)[C@@]2(O)c3ccccc3O[C@@]2(c2ccccc2)[C@@H]1c1ccccc1", "assigned_class": "not satisfied"}
{"compound": "CC[C@@H](c1ccccc1)n1c(=O)n2n(c1=O)[C@H]1[C@H](O)[C@@H]3O[C@@H]3C(=NOC[C@@H](O)COCc3ccco3)[C@H]1CC2", "assigned_class": "not satisfied"}
{"compound": "COC(=O)[C@@H]1CC[C@H](C)[C@@H](c2ccc(C)cc2)N1C(=O)c1ccc(C=NO[C@@H](C)c2cn([C@H](CO)Cc3ccccc3)nn2)cc1", "assigned_class": "not satisfied"}
{"compound": "CCCCC#C[C@@H]1C=C[C@H](OC(C)=O)[C@@H](COC(C)=O)O1", "assigned_class": "not satisfied"}
{"compound": "CCN1C(=O)[C@H]2[C@H]3[C@H](O)[C@H](O)CC(=NOC[C@H]4O[C@H](c5ccccc5)C=C[C@@H]4Oc4ccc(OC)cc4)[C@@H]3CC[C@H]2C1=O", "assigned_class": "not satisfied"}
{"compound": "CCOC(=O)[C@H](CC(C)C)NC(=O)CCC1CC(OC(=O)NCCc2ccc(F)cc2)CC2(CCCC(COC(=O)NCCc3ccc(Cl)cc3)O2)O1 (stereo not given in full)", "assigned_class": "not satisfied"}
{"compound": "CCOC(=O)[C@H](Cc1ccccc1)NC(=O)CCC1CC(OC(=O)NCCc2ccc(F)cc2)CC2(CCCC(COC(=O)NCCOC)O2)O1 (stereo not given in full)", "assigned_class": "satisfied"}
{"compound": "O=C1CCCC(C2=CCCCC2=O)C1 (stereo not given)", "assigned_class": "satisfied"}
{"compound": "CO[C@H]1COC(=O)CC=C[C@@H](C)[C@H](OC)COC(=O)CCC[C@@H]1C", "assigned_class": "not satisfied"}
{"compound": "CCC=CCCC(OC(=O)c1ccc(Br)cc1)C1=CCCCC1=O (stereo not given)", "assigned_class": "not satisfied"}
{"compound": "CCOC(=O)[C@H](Cc1ccccc1)NC(=O)CCC1CC(OC(=O)NCc2cccc3ccccc23)CC2(CCCC(COC(=O)NCC(c3ccccc3)c3ccccc3)O2)O1 (stereo not given in full)", "assigned_class": "satisfied"}
{"compound": "O=C1C[C@@H](O)[C@@H](O)[C@@H]2[C@@H]3C(=O)N(Cc4ccccc4)C(=O)[C@@H]3CC[C@@H]12", "assigned_class": "satisfied"}
{"compound": "COC(=O)[C@H](C)NC(=O)CCC1CC(OC(=O)NCc2cccc3ccccc23)CC2(CCCC(COC(=O)NCC(c3ccccc3)c3ccccc3)O2)O1 (stereo not given in full)", "assigned_class": "satisfied"}
{"compound": "C[n+]1ccc(-c2ccc(CO)cc2)cc1", "assigned_class": "not satisfied"}
{"compound": "C[C@H]1CC[C@H]2C(=O)O[C@H](COc3ccc(C(C)(C)C)cc3)CN2[C@@H]1c1ccc(Br)cc1", "assigned_class": "not satisfied"}

* * *

molecular target: Torsin-1A-interacting protein 2 (Homo sapiens) (UniProt Q8NFQ8); experiment: LULL1 binders on small-molecule microarray, primary screen, cell lysate, human LULL1 lysate, 635/667 nm fluorescence (AID 1092); settings: hLULL1 lysate binding, 635 nm fluorescence, higher = more signal;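 note: probe is lysate of COS7 cells overexpressing human LULL1; score merges per-feature 667 nm fluorescence with signal-to-noise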
Sequence (Q8NFQ8 whole entry, looked up): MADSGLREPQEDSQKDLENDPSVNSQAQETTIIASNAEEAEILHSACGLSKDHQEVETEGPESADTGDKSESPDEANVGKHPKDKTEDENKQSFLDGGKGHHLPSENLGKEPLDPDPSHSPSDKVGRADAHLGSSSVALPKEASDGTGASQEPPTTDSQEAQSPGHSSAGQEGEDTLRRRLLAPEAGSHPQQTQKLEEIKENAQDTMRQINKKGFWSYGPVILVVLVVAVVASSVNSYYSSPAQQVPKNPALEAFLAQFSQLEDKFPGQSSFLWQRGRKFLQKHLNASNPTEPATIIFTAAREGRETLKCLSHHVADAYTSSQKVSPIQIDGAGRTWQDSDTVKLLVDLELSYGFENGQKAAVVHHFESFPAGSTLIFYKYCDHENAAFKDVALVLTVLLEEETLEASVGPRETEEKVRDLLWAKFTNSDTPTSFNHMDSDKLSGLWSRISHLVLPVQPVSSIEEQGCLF

{"smiles": "CC(C)=CCCC(C)=CCON=C1C[C@@H](O)[C@@H](O)[C@@H]2[C@@H]3C(=O)N(C4CCCCC4)C(=O)[C@@H]3CC[C@@H]12", "composite z-score": -0.687}
{"smiles": "CO[C@H]1COC(=O)CC=C[C@H](C)[C@@H](OC)COC(=O)[C@H](C)COC(=O)CC=C[C@@H]1C", "composite z-score": -0.344}
{"smiles": "CCOC(=O)CCN1C(=O)[C@H]2[C@H]3[C@H](O)[C@H](O)CC(=NOCc4ccccc4)[C@H]3CC[C@H]2C1=O", "composite z-score": 0.374}
{"smiles": "O=C1[C@H]2[C@H]3[C@H](O)[C@H](O)CC(=NOC[C@@H](O)COCc4ccco4)[C@@H]3CC[C@H]2C(=O)N1C[C@@H]1CCCO1", "composite z-score": -0.239}

* * *

# Lookup of reported composite z-score keyed by entry
target: Albumin (Bos taurus); experiment: bovine serum albumin binders on microarray, profiling panel, artefact control for SMM control protein annotation, biochemical, small-molecule microarray, Alexa647 label, 635/667 nm fluorescence (AID 1118); details: BSA-A647 binding, fluorescence 635 nm, higher = more signal;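 note: score merges 667 nm emission intensity and signal-to-noise per printed compound spot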
measure_name: composite z-score

{"compound": "CCOC(=O)[C@H](Cc1ccccc1)NC(=O)CCC1CC(OC(=O)NCCc2ccc(F)cc2)CC2(CCCC(COC(=O)NCc3ccccc3)O2)O1 (stereo partly specified)", "experimental_value": 0.0213}
{"compound": "CCOC(=O)[C@H](Cc1ccccc1)NC(=O)CCC1CC(OC(=O)NCc2cccc3ccccc23)CC2(CCCC(COC(=O)NCc3cccc(C(F)(F)F)c3)O2)O1 (stereo partly specified)", "experimental_value": 0.331}
{"compound": "CC(C)=CCCC(C)=CCON=C1C[C@@H](O)[C@@H](O)[C@@H]2[C@@H]3C(=O)N(c4ccc(F)cc4F)C(=O)[C@@H]3CC[C@H]12", "experimental_value": 0.477}
{"compound": "COC(=O)[C@H](C)NC(=O)CCC1CC(OC(=O)NCCc2ccc(F)cc2)CC2(CCCC(COC(=O)NCc3cccc(C(F)(F)F)c3)O2)O1 (stereo partly specified)", "experimental_value": 0.0516}
{"compound": "COC(=O)[C@@H]1CC[C@H](C)[C@@H](c2ccc(C)cc2)N1C(=O)c1ccc(C=NO[C@H](C)c2cn([C@H](CO)Cc3ccccc3)nn2)cc1", "experimental_value": 0.279}
{"compound": "COC(=O)CC=C[C@@H](C)[C@@H](C=NOCC[C@@H]1C=C[C@H](OC(C)=O)[C@@H](COC(C)=O)O1)OC", "experimental_value": -0.395}

Attribution: PubChem BioAssay
